assay: Apparent permeability across apical to basolateral side in MDCKII-MDR1 cells at 10 uM incubated for 90 mins by LC-MS/MS analysis; conditions: dog, mdck-mdr1, 1.5 h
Catalogue of Papp values

Guide cases for Papp, answers given:
| Molecule | Papp |
| --- | --- |
| CC1CCCN1C(=O)c1c(NC(=O)c2cccnc2)sc2c1CCCC2 (centres undefined) | 29 10^-6 cm/s |
| Cn1ccnc1SCC(=O)Nc1sc2c(c1C(=O)NCc1ccccc1)CCCC2 | 27.8 10^-6 cm/s |
| CCC1CCc2c(sc(NC(=O)c3ccnn3C)c2C(=O)Nc2ccccc2C)C1 (centres undefined) | 3.2 10^-6 cm/s |
| CC1CCc2c(sc(NC(=O)c3ccccc3F)c2C(=O)N2CCN(C)CC2)C1 (centres undefined) | 28.9 10^-6 cm/s |
| CSc1ncc(Cl)c(C(=O)Nc2sc3c(c2C(=O)NC2CCS(=O)(=O)C2)CCC(C)C3)n1 (centres undefined) | 2.5 10^-6 cm/s |
| CC1CCN(CC(=O)Nc2sc3c(c2C(=O)NCc2ccccc2)CCCC3)CC1 | 1.3 10^-6 cm/s |
| CSc1ncc(Cl)c(C(=O)Nc2sc3c(c2C(=O)NCc2ccccc2)CCCC3)n1 | 8 10^-6 cm/s |
| CN1CCN(CC(=O)Nc2sc3c(c2C(=O)NCc2ccccc2)CCCC3)CC1 | 6.8 10^-6 cm/s |

Now for the molecule whose Papp we want.
So, O=C(Nc1sc2c(c1C(=O)N1CCC(CO)C1)CCCC2)c1cccnc1 (centres undefined) ? Its Papp was 5.2 10^-6 cm/s

====

assay: physchem; details: PBS, pH 7.4
Readout Kind: solubility kinetic at 2 h (µM)
Write the answer as a number in µM, unit excluded.

Guide cases for solubility kinetic at 2 h, answers given:
| Molecule | Readout Kind | Unit String | Recorded Measurement |
| --- | --- | --- | --- |
| O=C(Nc1sc2c(c1C(=O)N1CCC(CO)C1)CCCC2)c1cccnc1 (stereo unspecified) | solubility kinetic at 2 h | µM | 79.3 |
| CCC1CCN(C(=O)c2c(NC(=O)c3cccnc3)sc3c2CCCC3)C1 (stereo unspecified) | solubility kinetic at 2 h | µM | 32.9 |
| CSc1ncc(Cl)c(C(=O)Nc2sc3c(c2C(=O)NC2CCS(=O)(=O)C2)CCC(C)C3)n1 (stereo unspecified) | solubility kinetic at 2 h | µM | 40.2 |
| CC1(C)CCc2c(sc(NC(=O)c3cnccn3)c2C(=O)N2CCOCC2)C1 | solubility kinetic at 2 h | µM | 34.8 |

So, O=C(Nc1sc2c(c1C(=O)NCC1CCNCC1)CCCC2)c1cccnc1 ? Its solubility kinetic at 2 h was 84.7

So, Cn1cnc(CNC(=O)c2c(NC(=O)c3cccnc3)sc3c2CCCC3)n1 ? Its solubility kinetic at 2 h was 93.6

So, C[C@@H](C#N)NC(=O)c1c(NC(=O)c2cccnc2)sc2c1CCCC2 ? Its solubility kinetic at 2 h was 90.9

So, CC1CCN(CC(=O)Nc2sc3c(c2C(=O)NCc2ccccc2)CCCC3)CC1 ? Its solubility kinetic at 2 h was 12.4

So, C[C@@H]1CCN(C(=O)c2c(NC(=O)c3cccnc3)sc3c2CCCC3)[C@H](C)C1 (single isomer, unassigned) ? Its solubility kinetic at 2 h was 27

So, CC1CCc2c(sc(NC(=O)c3ccccc3F)c2C(=O)N2CCN(C)CC2)C1 (stereo unspecified) ? Its solubility kinetic at 2 h was 27.7

So, CC1CCCN1C(=O)c1c(NC(=O)c2cccnc2)sc2c1CCCC2 (stereo unspecified) ? Its solubility kinetic at 2 h was 31.3

So, O=C(Nc1sc2c(c1C(=O)c1ccccc1)CCCC2)c1cnccn1 ? Its solubility kinetic at 2 h was 18.3

So, O=C(CN1CCCCC1)Nc1sc2c(c1C(=O)NCc1ccccc1)CCCC2 ? Its solubility kinetic at 2 h was 19.7
